Tested on: β-glucosidase (SEQ ID NO: 1)
Test: Disaccharide production from glucose by beta-glucosidase with added divalent metal ion
Format: biochemical, Trichoderma reesei
Conditions: standing period 21 days; 1 mM ion; 60° C.
ASSAY METRIC: Concentration (g/L) Sophorose
Value expressed in g/L; do not type the unit.

Would you kindly share the measured Concentration (g/L) Sophorose for `[Mg+2]` ?
23.1

Would you kindly share the measured Concentration (g/L) Sophorose for `[Mn+2]` ?
23.6

Would you kindly share the measured Concentration (g/L) Sophorose for `[Cu+2]` ?
24.3

Would you kindly share the measured Concentration (g/L) Sophorose for [Zn+2] [Zn^2+, zinc ion (Zn^2+)] ?
23.4

---

Tested on: β-glucosidase (SEQ ID NO: 1)
Assay: Disaccharide production from glucose by beta-glucosidase with added divalent metal ion
Assay type: biochemical, Trichoderma reesei
Conditions: standing period 7 days; 1 mM ion; 60° C.; total equals gentiobiose + sophorose
ASSAY METRIC: Concentration (g/L) Total
Value expressed in g/L; do not type the unit.

Would you kindly share the measured Concentration (g/L) Total for [Zn+2] [Zn^2+, zinc ion (Zn^2+)] ?
82.5

Would you kindly share the measured Concentration (g/L) Total for `[Mn+2]` ?
81.1

Would you kindly share the measured Concentration (g/L) Total for `[Cu+2]` ?
85

Would you kindly share the measured Concentration (g/L) Total for `[Mg+2]` ?
75.1

---

Tested on: β-glucosidase (SEQ ID NO: 1)
Experiment: Disaccharide production from glucose by beta-glucosidase with added divalent metal ion
Format: biochemical, Trichoderma reesei
Conditions: standing period 7 days; 1 mM ion; 60° C.
What Concentration (g/L) Gentiobiose was measured for each of the following?
Value expressed in g/L; do not type the unit.

Would you kindly share the measured Concentration (g/L) Gentiobiose for `[Mn+2]` ?
69.5

Would you kindly share the measured Concentration (g/L) Gentiobiose for `[Cu+2]` ?
71.7

Would you kindly share the measured Concentration (g/L) Gentiobiose for `[Mg+2]` ?
64.3

Would you kindly share the measured Concentration (g/L) Gentiobiose for [Zn+2] [Zn^2+, zinc ion (Zn^2+)] ?
69.9

---

Tested on: β-glucosidase (SEQ ID NO: 1)
Assay: Disaccharide production from glucose by beta-glucosidase with added divalent metal ion
Format: biochemical, Trichoderma reesei
Conditions: standing period 14 days; 1 mM ion; 60° C.
What Concentration (g/L) Isomaltose was measured for each of the following?
Value expressed in g/L; do not type the unit.

Would you kindly share the measured Concentration (g/L) Isomaltose for [Mn+2] [Mn^2+, manganese ion (Mn^2+)] ?
12.4

Would you kindly share the measured Concentration (g/L) Isomaltose for [Zn+2] [Zn^2+, zinc ion (Zn^2+)] ?
9.8

Would you kindly share the measured Concentration (g/L) Isomaltose for [Mg+2] [Mg^2+, magnesium ion (Mg^2+)] ?
10.6

Would you kindly share the measured Concentration (g/L) Isomaltose for [Cu+2] [Cu^2+, copper ion (Cu^2+)] ?
10.3

---

What Concentration (g/L) Cellobiose was measured for each of the following?
Test system: β-glucosidase (SEQ ID NO: 1)
Assay: Disaccharide production from glucose by beta-glucosidase with added divalent metal ion
Type: biochemical, Trichoderma reesei
Conditions: standing period 14 days; 1 mM ion; 60° C.
Method: Glucose powder with a purity of 95% or more (hydrous crystalline glucose, Daejung Chemicals & Metals) was dissolved using steam to prepare 40 kg of a glucose solution with a concentration of 71% w/w. […] In the compositions prepared in Examples 1 and 2, the production concentration (g/L) and increase/decrease rate (%) of the disaccharides, i.e. trehalose, isomaltose, maltose, cellobiose, gentiobiose, and sophorose were measured, and the results are shown in Table 1 and Table 2 below. […]
Value expressed in g/L; do not type the unit.

Would you kindly share the measured Concentration (g/L) Cellobiose for `[Mn+2]` ?
15.4

Would you kindly share the measured Concentration (g/L) Cellobiose for `[Mg+2]` ?
15.6

Would you kindly share the measured Concentration (g/L) Cellobiose for [Zn+2] [Zn^2+, zinc ion (Zn^2+)] ?
14.9

Would you kindly share the measured Concentration (g/L) Cellobiose for `[Cu+2]` ?
15.2

---

System: β-glucosidase (SEQ ID NO: 1)
Assay: Disaccharide production from glucose by beta-glucosidase with added divalent metal ion
Type: biochemical, Trichoderma reesei
Conditions: standing period 21 days; 1 mM ion; 60° C.; total equals gentiobiose + sophorose
ASSAY METRIC: Concentration (g/L) Total
Value expressed in g/L; do not type the unit.

Would you kindly share the measured Concentration (g/L) Total for [Mg+2] [Mg^2+, magnesium ion (Mg^2+)] ?
97.7

Would you kindly share the measured Concentration (g/L) Total for [Zn+2] [Zn^2+, zinc ion (Zn^2+)] ?
115.4

Would you kindly share the measured Concentration (g/L) Total for [Cu+2] [Cu^2+, copper ion (Cu^2+)] ?
116.7

Would you kindly share the measured Concentration (g/L) Total for [Mn+2] [Mn^2+, manganese ion (Mn^2+)] ?
110.2

---

Tested on: β-glucosidase (SEQ ID NO: 1)
Assay: Disaccharide production from glucose by beta-glucosidase with added divalent metal ion
Assay type: biochemical, Trichoderma reesei
Settings: standing period 14 days; 1 mM ion; 60° C.
ASSAY METRIC: Concentration (g/L) Gentiobiose
Value expressed in g/L; do not type the unit.

Would you kindly share the measured Concentration (g/L) Gentiobiose for [Cu+2] [Cu^2+, copper ion (Cu^2+)] ?
82.1

Would you kindly share the measured Concentration (g/L) Gentiobiose for [Mn+2] [Mn^2+, manganese ion (Mn^2+)] ?
78

Would you kindly share the measured Concentration (g/L) Gentiobiose for [Mg+2] [Mg^2+, magnesium ion (Mg^2+)] ?
69.4

Would you kindly share the measured Concentration (g/L) Gentiobiose for [Zn+2] [Zn^2+, zinc ion (Zn^2+)] ?
81

---

Tested on: β-glucosidase (SEQ ID NO: 1)
Assay: Disaccharide production from glucose by beta-glucosidase with added divalent metal ion
Type: biochemical, Trichoderma reesei
Conditions: standing period 7 days; 1 mM ion; 60° C.
What Concentration (g/L) Sophorose was measured for each of the following?
Value expressed in g/L; do not type the unit.

Would you kindly share the measured Concentration (g/L) Sophorose for `[Mg+2]` ?
10.8

Would you kindly share the measured Concentration (g/L) Sophorose for `[Cu+2]` ?
13.3

Would you kindly share the measured Concentration (g/L) Sophorose for [Zn+2] [Zn^2+, zinc ion (Zn^2+)] ?
12.6

Would you kindly share the measured Concentration (g/L) Sophorose for `[Mn+2]` ?
11.6

---

Test system: β-glucosidase (SEQ ID NO: 1)
Assay: Disaccharide production from glucose by beta-glucosidase with added divalent metal ion
Assay type: biochemical, Trichoderma reesei
Details: standing period 21 days; 1 mM ion; 60° C.
ASSAY METRIC: Concentration (g/L) Isomaltose
Value expressed in g/L; do not type the unit.

Would you kindly share the measured Concentration (g/L) Isomaltose for `[Mg+2]` ?
13.2

Would you kindly share the measured Concentration (g/L) Isomaltose for `[Mn+2]` ?
15.7

Would you kindly share the measured Concentration (g/L) Isomaltose for [Zn+2] [Zn^2+, zinc ion (Zn^2+)] ?
12.5

Would you kindly share the measured Concentration (g/L) Isomaltose for `[Cu+2]` ?
12.4

---

What Concentration (g/L) Trehalose was measured for each of the following?
System: β-glucosidase (SEQ ID NO: 1)
Test: Disaccharide production from glucose by beta-glucosidase with added divalent metal ion
Type: biochemical, Trichoderma reesei
Conditions: standing period 14 days; 1 mM ion; 60° C.
Value expressed in g/L; do not type the unit.

Would you kindly share the measured Concentration (g/L) Trehalose for [Mg+2] [Mg^2+, magnesium ion (Mg^2+)] ?
15.3

Would you kindly share the measured Concentration (g/L) Trehalose for [Zn+2] [Zn^2+, zinc ion (Zn^2+)] ?
14.3

Would you kindly share the measured Concentration (g/L) Trehalose for [Mn+2] [Mn^2+, manganese ion (Mn^2+)] ?
14.6

Would you kindly share the measured Concentration (g/L) Trehalose for [Cu+2] [Cu^2+, copper ion (Cu^2+)] ?
12.6

---

Test system: β-glucosidase (SEQ ID NO: 1)
Assay: Disaccharide production from glucose by beta-glucosidase with added divalent metal ion
Type: biochemical, Trichoderma reesei
Settings: standing period 7 days; 1 mM ion; 60° C.
ASSAY METRIC: Concentration (g/L) Maltose
Value expressed in g/L; do not type the unit.

Would you kindly share the measured Concentration (g/L) Maltose for `[Mg+2]` ?
13.7

Would you kindly share the measured Concentration (g/L) Maltose for `[Cu+2]` ?
18.7

Would you kindly share the measured Concentration (g/L) Maltose for `[Mn+2]` ?
16.8

Would you kindly share the measured Concentration (g/L) Maltose for [Zn+2] [Zn^2+, zinc ion (Zn^2+)] ?
15.8

---

Tested on: β-glucosidase (SEQ ID NO: 1)
Assay: Disaccharide production from glucose by beta-glucosidase with added divalent metal ion
Format: biochemical, Trichoderma reesei
Details: standing period 21 days; 1 mM ion; 60° C.
What Concentration (g/L) Cellobiose was measured for each of the following?
# output: numeric value plus its unit

Would you kindly share the measured Concentration (g/L) Cellobiose for [Mg+2] [Mg^2+, magnesium ion (Mg^2+)] ?
15.4 g/L

Would you kindly share the measured Concentration (g/L) Cellobiose for [Zn+2] [Zn^2+, zinc ion (Zn^2+)] ?
15 g/L

Would you kindly share the measured Concentration (g/L) Cellobiose for [Mn+2] [Mn^2+, manganese ion (Mn^2+)] ?
15.5 g/L

Would you kindly share the measured Concentration (g/L) Cellobiose for [Cu+2] [Cu^2+, copper ion (Cu^2+)] ?
15.5 g/L
